Reference source for all entries: ChEMBL document CHEMBL3885881

Organism: Rattus norvegicus
Test: DrugMatrix - Regimen: Daily Repeat
Assay type: toxicity, organism-based, Sprague-Dawley
Parameters: regimen Daily Repeat, gender Male, age 6-8 weeks
Details: in vivo, po, 0 mg/kg, 120 h, tissue Blood, route oral GAVAGE, dose level Control, time 5 day, vehicle .5 % CMC
READOUT_KIND: MONOCYTE (%)
Kindly provide the numeric value in % only, without the unit symbol.

What the record says about `CC(=O)Nc1ccc2c(c1)Cc1ccccc1-2` : MONOCYTE is 0.83

What the record says about `O=C1c2ccccc2C(=O)C1c1ccccc1` : MONOCYTE is 2.2

What the record says about CN(C)CCC=C1c2ccccc2COc2ccccc21 [DOXEPIN] : MONOCYTE is 0.83

* * *

Species on record: Rattus norvegicus
Test: DrugMatrix - Regimen: Daily Repeat
Assay type: toxicity, organism-based, Sprague-Dawley
Design: regimen Daily Repeat, gender Male, age 6-8 weeks
Conditions: in vivo, po, 0 mg/kg, 72 h, tissue Plasma, route oral GAVAGE, dose level Control, time 3 day, […]
READOUT_KIND: ASPARTATE AMINOTRANSFERASE (u/L)
Kindly provide the numeric value in u/L only, without the unit symbol.

What the record says about COC(=O)Nc1nc2ccc(C(=O)c3ccccc3)cc2[nH]1 [MEBENDAZOLE] : ASPARTATE AMINOTRANSFERASE is 89.83

What the record says about O=C(Nc1ccc(Cl)c(Cl)c1)c1cc(Cl)cc(Cl)c1O [3,3',4',5-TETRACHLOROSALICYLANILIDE] : ASPARTATE AMINOTRANSFERASE is 88

What the record says about Cc1cccc(C)c1NC(=O)C(C)N (stereo not drawn) [TOCAINIDE] : ASPARTATE AMINOTRANSFERASE is 102.67

What the record says about O=C(O)COC(=O)Cc1ccccc1Nc1c(Cl)cccc1Cl [ACECLOFENAC] : ASPARTATE AMINOTRANSFERASE is 89.83

What the record says about c1ccc2c(c1)Nc1ccccc1S2 [PHENOTHIAZINE] : ASPARTATE AMINOTRANSFERASE is 90.83

What the record says about CS(=O)(=O)c1ccc(C2=C(c3ccccc3)C(=O)OC2)cc1 [ROFECOXIB] : ASPARTATE AMINOTRANSFERASE is 90.83

What the record says about `CO[C@H]1O[C@@H]2O[C@@]3(C)CC[C@H]4[C@H](C)CC[C@@H]([C@H]1C)[C@@]24OO3` : ASPARTATE AMINOTRANSFERASE is 87.83

What the record says about COc1ccccc1OCCNCC(O)COc1cccc2[nH]c3ccccc3c12 (stereo not drawn) [CARVEDILOL] : ASPARTATE AMINOTRANSFERASE is 89.83

What the record says about CC#C[C@]1(O)CC[C@H]2[C@@H]3CCC4=CC(=O)CCC4=C3[C@@H](c3ccc(N(C)C)cc3)C[C@@]21C [MIFEPRISTONE] : ASPARTATE AMINOTRANSFERASE is 83.5

What the record says about Oc1ncnc2[nH]ncc12 [ALLOPURINOL] : ASPARTATE AMINOTRANSFERASE is 98.33

What the record says about CCOC(=O)C1=C(C)NC(C)=C(C(=O)OCC)C1c1ccccc1/C=C/C(=O)OC(C)(C)C [LACIDIPINE] : ASPARTATE AMINOTRANSFERASE is 87.5

What the record says about CCC(C)(C)C(=O)O[C@H]1C[C@@H](C)C=C2C=C[C@H](C)[C@H](CC[C@@H]3C[C@@H](O)CC(=O)O3)[C@H]21 [SIMVASTATIN] : ASPARTATE AMINOTRANSFERASE is 83.5

What the record says about CC(C)(c1ccc(O)cc1)c1ccc(O)cc1 [BISPHENOL A] : ASPARTATE AMINOTRANSFERASE is 81.17
